Reference source for all entries: the nanobody polyreactivity screen of Harvey et al. (2022)

experiment: yeast display, Sf9 membrane polyspecificity reagent, FACS + sequencing; frameworks hold sequencing errors
quantity.measured: polyreactivity (PSR sort gate)

- sequence.chain: "QVQLVESGGGLVQAGGSLRLSCAASGRTFWVYAMGWYRQAPGKERELVAAINTGGSTTYADSVKGRFTISRDNAKNTVYLQMNSLKPEDTAVYYCAADTWWYGKYDYWGQGTQVTVSS"
  polyreactivity (PSR sort gate): "low polyreactivity"
- sequence.chain: "KVQLVESGGGLVQAGGSLRLSCAASGSTFYQYAMGWYRQAPGKERELVAVITGSGGSTYYADSVKGRFTISRDNAKNTVYLQMNSLKPEDTAVYYCAAGARYFKYRTTSLGGNYWGQGTQVTVSS"
  polyreactivity (PSR sort gate): "high polyreactivity"
- sequence.chain: "QVQLVESGGGLVQAGGSLRLSCAASGRTFLALGWYRPAPGKERELVAAISRTNYADSVKGRVTISRDNAKNTVYLQMHSLKPEETAVYYCAKEYYSYEGYLGLSYVRRYDYWGQGTQVTVSS"
  polyreactivity (PSR sort gate): "low polyreactivity"
- sequence.chain: "QVQLVESGGGLVQAGGSLRLSCAASGITFPRYTMGWYRQAPGTERELVAAISSGGSTYYADSVKGRFTISRDNAKNTVYLQMNSLKPEDTAVYYCNAEVPYWYYIYDYWGQGTQVTVSS"
  polyreactivity (PSR sort gate): "high polyreactivity"

[in] Given the entry `QVQLVESGGGLVQAGGSLRLSCAASGFTFWYYAMGWYRQAPGKERELVATITSGDSTKYADSVKGSFTISRDNAKNTVFLQMNSLNPEDNAVYYCAAEKVLPFIGYDYWGQGTQVTVSS` , report its measured polyreactivity (PSR sort gate).
[out] low polyreactivity
